- Tested on: HT29 colon
- assay.details: NCI-60 one-dose screen, 48 h (100 = growth as untreated, 0 = no growth, -100 = all killed)
- condition.context: 10 µM unless noted
This is part of a sample that, as a whole, favours compounds with a hit. Of some 83,000 tested, about 20% had one in any assay.
endpoint: growth (%)
Expressed in %, but write only the number.

Reported growth ( COc1cccc(NC(=O)c2sc3nc4c(cc3c2N)C(=O)CCC4)c1 ) = 4.77

Reported growth ( CCOc1ccc(NC(=O)c2ccoc2COc2ccccc2)cc1 ) = 107

Reported growth ( Cc1ccc2oc(=O)cc(-c3sc(N4CCCCC4)nc3-c3ccccc3)c2c1 ) = 99.9

Reported growth ( Cc1cccc(C)c1NC(=O)CSC(=S)N1CCCCC1 ) = 103

---

- Test system: A549/ATCC NSCLC
- assay.details: NCI-60 one-dose screen, 48 h (100 = growth as untreated, 0 = no growth, -100 = all killed)
- condition.context: 10 µM unless noted
Compounds without any hit were thinned out: in the full panel of roughly 83,000, 20% have a hit.
endpoint: growth (%)
Expressed in %, but write only the number.

Reported growth ( C=C1C(=O)O[C@H]2[C@H]1CC/C(Cn1cc(-c3ccc(F)cc3)nn1)=C\CC[C@@]1(C)O[C@@H]21 ) = 60.2

Reported growth ( Cn1c(=O)c2c(nc(Br)n2CC(=O)Nc2ccc(F)cc2)n(C)c1=O ) = 92.5

Reported growth ( N=C(N)c1ccc(S(N)(=O)=O)cc1 ) = 91.9

Reported growth ( NC1(N)C=CC2=C(C=C1)C1(N)C3=C(C=CC(N)(N)C=C3)N2C2(N)C3=C(C=CC(N)(N)C=C3)N1C1=C2C=CC(N)(N)C=C1 ) = 88.8

Reported growth ( Cn1cccc1/C=C1/SC(=S)N(CCc2ccc(O)cc2)C1=O ) = 61.5

Reported growth ( COc1cc2c3c(c4c5ccccc5[nH]c4c2c(OC)c1OC)C(=O)N(O)C3=O ) = 60.3

---

- System: EKVX NSCLC
- assay.details: NCI-60 one-dose screen, 48 h
- condition.context: 10 µM unless noted
Compounds without any hit were thinned out: in the full panel of roughly 83,000, 20% have a hit. Activity calls are given as the source filed them. How the source made its calls: active means growth percent below 10; inactive means the rest.
Hi! Could you answer with just one of these? active, inactive

Lab log entry: Cc1ccc(N(CC(=O)Nc2ccc(S(=O)(=O)NC3CCN(C)CC3)cc2)S(=O)(=O)c2ccc(Cl)cc2)cc1 — outcome as called in the assay?
inactive

Lab log entry: CC(=O)n1c(/C(C#N)=C/c2ccc(N(C)C)cc2)cc2ccccc21 — outcome as called in the assay?
inactive

Lab log entry: CC(=O)N1N=C(c2ccc(C)cc2)CC1c1ccc(Oc2ccc(Br)cc2)cc1 (stereo not given) — outcome as called in the assay?
inactive

Lab log entry: CCCCC[C@H]1C/C=C2/C(=O)C=C[C@@H]2C/C=C\CCCC(=O)O[C@@H](CCCCC)C/C=C2/C(=O)C=C[C@@H]2C/C=C\CCCC(=O)O1 — outcome as called in the assay?
active

Lab log entry: CC(=O)O[C@H]1CC[C@@]2(C)C(=CC[C@@H]3[C@@H]2CC[C@]2(C)C(=O)N(O)C(=O)C[C@@H]32)C1 — outcome as called in the assay?
inactive

Lab log entry: Cn1cc(-c2csc(-c3cn(CCN)c4ccc(F)cc34)n2)c2cccnc21 — outcome as called in the assay?
inactive

Lab log entry: Fc1ccc(Nc2ccc3c(OCCCN4CCOCC4)cccc3n2)cc1F — outcome as called in the assay?
inactive

Lab log entry: O=C1c2cc3c(cc2-c2c1c1ccc(F)cc1c(=O)n2CCCN1CCOCC1)OCO3 — outcome as called in the assay?
inactive

Lab log entry: Cn1c(=O)c2c(nc(Br)n2CC(=O)Nc2ccc(F)cc2)n(C)c1=O — outcome as called in the assay?
inactive

Lab log entry: O=C(O)/C(=C/c1ccc(O)cc1)c1ccccc1 — outcome as called in the assay?
inactive

Lab log entry: Clc1ccc2[nH]cc(-c3nc(-c4c[nH]c5ncccc45)cs3)c2c1 — outcome as called in the assay?
inactive

Lab log entry: CC(=O)Oc1ccccc1C(=O)/C=C/c1cccc([N+](=O)[O-])c1 — outcome as called in the assay?
inactive

Lab log entry: NCCn1cc(-c2nc(-c3c[nH]c4ncccc34)cs2)c2cc(Br)ccc21 — outcome as called in the assay?
inactive

Lab log entry: COc1ccc(-c2cc(=O)oc3ccc(Cl)cc23)cc1F — outcome as called in the assay?
inactive

Lab log entry: C[C@]12CC[C@@H]3c4ccc(O)cc4CC[C@H]3[C@@H]1C[C@H](O)[C@@H]2O — outcome as called in the assay?
inactive

Lab log entry: c1csc(-c2nc(-c3cc4ccccc4c(N4CCOCC4)n3)cs2)c1 — outcome as called in the assay?
inactive

Lab log entry: Cc1cccc(C)c1NC(=O)CSC(=S)N1CCN(CCOCCO)CC1 — outcome as called in the assay?
inactive

Lab log entry: CC(C)(C)n1cc(-c2ccnc(NCCCNS(=O)(=O)c3ccc(Cl)cc3)c2)c(-c2cccc(F)c2)n1 — outcome as called in the assay?
inactive

Lab log entry: NC(=O)NCC1CCCCC1 — outcome as called in the assay?
inactive

Lab log entry: COC(=O)[C@]12CC[C@@H](C)[C@H](C)[C@@H]1C1=CC[C@@H]3[C@@]4(C)C[C@@H](OC(C)=O)[C@H](O)[C@@](C)(COC(C)=O)[C@@H]4[C@H](O)C[C@@]3(C)[C@]1(C)CC2 — outcome as called in the assay?
active

Lab log entry: O=c1[nH]ncc(Br)c1Br — outcome as called in the assay?
inactive

Lab log entry: OCC(CO)(CCl)CCl — outcome as called in the assay?
inactive

Lab log entry: CC1(C)CC[C@]2(C(=O)NCCNCCN)CC[C@]3(C)C(=CC[C@@H]4[C@@]5(C)CCC(=O)C(C)(C)[C@@H]5CC[C@]43C)[C@@H]2C1 — outcome as called in the assay?
inactive

Lab log entry: CC(=O)OC(C)COc1ccc(-c2ccccc2)cc1 (stereo not given) — outcome as called in the assay?
inactive

Lab log entry: Fc1ccc2[nH]cc(-c3nc(-c4c[nH]c5ncccc45)cs3)c2c1 — outcome as called in the assay?
inactive

Lab log entry: COc1cc(OC)c2c(c1)c1nc3cc(C)c(C)cc3nc1n2CCN(C)C — outcome as called in the assay?
inactive

Lab log entry: Cn1cc(-c2nc(-c3c[nH]c4ncccc34)cs2)c2cc(F)ccc21 — outcome as called in the assay?
inactive

Lab log entry: CCOc1ccc(NC(=O)c2ccccc2-c2ccccc2C(=O)O)cc1 — outcome as called in the assay?
inactive

Lab log entry: Cc1cccc2c1NC(=O)[C@@]21[C@H](C(=O)c2ccccc2)[C@]2(C(=O)Nc3ccccc32)[C@H]2CCCN21 — outcome as called in the assay?
inactive

Lab log entry: CC1(C)C=CC[C@]2(C)[C@H]3CC[C@@H]4[C@H]5[C@H](C(=O)/C=C/c6cccnc6)CC[C@]5(CO)CC[C@@]4(C)[C@]3(C)CC[C@@H]12 — outcome as called in the assay?
active

Hey, just so you know, these numbers are from PubChem BioAssay (NCI).
